- target.or.system: UniProtKB O08914
- Sequence (O08914 whole entry): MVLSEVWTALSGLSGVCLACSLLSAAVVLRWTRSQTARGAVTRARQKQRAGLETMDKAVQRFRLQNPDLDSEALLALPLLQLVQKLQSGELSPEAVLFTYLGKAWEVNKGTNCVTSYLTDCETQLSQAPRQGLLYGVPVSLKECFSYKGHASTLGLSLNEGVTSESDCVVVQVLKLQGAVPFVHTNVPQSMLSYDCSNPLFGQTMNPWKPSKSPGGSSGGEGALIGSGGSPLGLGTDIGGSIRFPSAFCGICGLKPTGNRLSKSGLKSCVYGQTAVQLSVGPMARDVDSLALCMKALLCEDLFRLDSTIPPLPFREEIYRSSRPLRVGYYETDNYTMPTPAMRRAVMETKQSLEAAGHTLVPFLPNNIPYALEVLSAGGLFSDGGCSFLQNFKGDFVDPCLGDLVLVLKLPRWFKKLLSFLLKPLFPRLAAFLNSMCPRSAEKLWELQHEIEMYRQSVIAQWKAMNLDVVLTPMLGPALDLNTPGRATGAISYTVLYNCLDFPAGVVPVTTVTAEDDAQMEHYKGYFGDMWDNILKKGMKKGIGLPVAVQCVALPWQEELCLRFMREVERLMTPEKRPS
- measurement.protocol: In Vitro Competitive Activity-Based Protein Profiling: Proteomes (mouse brain membrane fraction or cell lysates) (50 μL, 1.0 mg/mL total protein concentration) were preincubated with varying concentrations of inhibitors at 37° C. After 30 min, FP¿Rh (1.0 μL, 50 μM in DMSO) was added and the mixture was incubated for another 30 min at 37° C. Reactions were quenched with SDS loading buffer (50 μL-4×) and run on SDS-PAGE. Following gel imaging, serine hydrolase activity was determined by measuring fluorescent intensity of gel bands corresponding to MAGL, ABHD6 and FAAH using ImageJ 1.43u software.
reported.metric: IC50

For the compound shown here, O=C(OC(C(F)(F)F)C(F)(F)F)N1CCC2(CCCN2Cc2ccc(OCCN3CCOCC3)cc2)CC1 , give the reported IC50.
> 1000 nM
